Tested on: BT-549 breast
Assay: NCI tumour cell line growth inhibition, 48 h
measurementLabel: log10 TGI (log10 of the value in µM)
Hey, these are logged values: log10 of TGI, µM being the unit before logging.

Past entries and their recorded results:
molecule: COc1ccc2c(c1)-c1c(c3cc(OC)ccc3n1CCCN(C)C)CC2
testResult: 1.51

molecule: COC(=O)c1ccccc1CC1Cc2cc3c(cc2C1=O)CCC3 (stereo not given)
testResult: 1.50

Next, consider the following molecule.
**Q:** Param item = CC(C)(Oc1ccc(Cl)cc1)C(=O)N(C(=O)N1CCCCC1)c1ccccc1 ; retrieve measured log10 TGI.
**A:** 1.48
